# EXPERIMENT: protein stability index of a GFP-peptide fusion (yeast GPS) (PSI 1-4); higher = more stable; sorted into four equal gates, so the index is relative within each strain
# APPLIED_CONDITIONS: doa10∆
The following sequences are shown together with reported protein stability index values.
METRIC: protein stability index

{"BIOSEQUENCE": "FEDQVTNILTKVDINAD [PRP28]", "QUANTITATIVE_RESULT": 3.19}
{"BIOSEQUENCE": "PNIRTMSGTTKRLNGKR [SSN2]", "QUANTITATIVE_RESULT": 2.24}
{"BIOSEQUENCE": "VEINSSESDLDEDKNFP [ESC2]", "QUANTITATIVE_RESULT": 2.99}
{"BIOSEQUENCE": "RLDSYKVIEQPITSETA [RPL25]", "QUANTITATIVE_RESULT": 1.94}
{"BIOSEQUENCE": "IEKWTANLLPARQFGYV [RPS22A]", "QUANTITATIVE_RESULT": 1.6}
{"BIOSEQUENCE": "LKGLNGFPSAPQPLFME [YMR153W/NUP53]", "QUANTITATIVE_RESULT": 2.53}
{"BIOSEQUENCE": "EIDHQEYSPEILQIREE [RRP6]", "QUANTITATIVE_RESULT": 3.19}
{"BIOSEQUENCE": "AACEKLLPPIKIELIKN [RPN12]", "QUANTITATIVE_RESULT": 1.98}
{"BIOSEQUENCE": "ADDADIEMKDVSSKPSK [MED1]", "QUANTITATIVE_RESULT": 3.17}
{"BIOSEQUENCE": "IKIKSLEYEISKLKKET [YIL149C/MLP2]", "QUANTITATIVE_RESULT": 2.97}
{"BIOSEQUENCE": "VSFNSKQNEQLHVEQLS [SMC3]", "QUANTITATIVE_RESULT": 2.27}
{"BIOSEQUENCE": "ELSDSWRAHDSSIVAID [YGL100W/SEH1]", "QUANTITATIVE_RESULT": 2.9}
{"BIOSEQUENCE": "RLELPVDFQNDLKDILE [BRR2]", "QUANTITATIVE_RESULT": 2.83}
{"BIOSEQUENCE": "SIDSTSRIELELKNIGL [ECM29]", "QUANTITATIVE_RESULT": 2.59}
{"BIOSEQUENCE": "MDVDQFDFLDDGTAQLS [YJR042W/NUP85]", "QUANTITATIVE_RESULT": 2.46}
{"BIOSEQUENCE": "SQEQGMGMDLYKTSKAA [FAS1]", "QUANTITATIVE_RESULT": 3.05}
{"BIOSEQUENCE": "TGALINNLEPRQTTSNT [RPN11]", "QUANTITATIVE_RESULT": 3.12}
{"BIOSEQUENCE": "RIVGSELIQKYLGDGPR [RPT2]", "QUANTITATIVE_RESULT": 2.21}
{"BIOSEQUENCE": "AQAQAQAQAQAHAQHQP [GAL11]", "QUANTITATIVE_RESULT": 2.81}
{"BIOSEQUENCE": "GELGEIRALQPKLKEGA [YIL149C/MLP2]", "QUANTITATIVE_RESULT": 3.15}
{"BIOSEQUENCE": "APNHSPEIDNLDDLVVL [RRP6]", "QUANTITATIVE_RESULT": 3.16}
{"BIOSEQUENCE": "LLNKNTGNNLYDRNSNN [SWI1]", "QUANTITATIVE_RESULT": 2.79}
{"BIOSEQUENCE": "FKLVSTPSSNSNSSELE [MED1]", "QUANTITATIVE_RESULT": 1.85}
{"BIOSEQUENCE": "KLMDEDSVATVIEVIET [YJR042W/NUP85]", "QUANTITATIVE_RESULT": 2.85}
{"BIOSEQUENCE": "SQYFKFKNDFNSFYYTS [RPN9]", "QUANTITATIVE_RESULT": 2.1}
{"BIOSEQUENCE": "YLGTKVELPYGAHGYSG [PRE1]", "QUANTITATIVE_RESULT": 2.77}
{"BIOSEQUENCE": "EHFLKLNIDFGSDKQMF [YML103C/NUP188]", "QUANTITATIVE_RESULT": 2.61}
{"BIOSEQUENCE": "GNDFKFNYQGDELVLNF [REC8]", "QUANTITATIVE_RESULT": 3.34}
{"BIOSEQUENCE": "SSNQSAPVETKKKRFEI [HRT1]", "QUANTITATIVE_RESULT": 3.18}
{"BIOSEQUENCE": "ITLALADAGIELVDMAG [MTR3]", "QUANTITATIVE_RESULT": 1.89}
{"BIOSEQUENCE": "MALNKVLITDHIEKLEN [CDC53]", "QUANTITATIVE_RESULT": 2.52}
{"BIOSEQUENCE": "QELRKKVNPNIMNMIEN [SMC2]", "QUANTITATIVE_RESULT": 2.45}
{"BIOSEQUENCE": "AGAGEANGTVVSFIKNG [MTR3]", "QUANTITATIVE_RESULT": 1.79}
{"BIOSEQUENCE": "FAQENSELAVATTSVMM [SRB6]", "QUANTITATIVE_RESULT": 2.82}
{"BIOSEQUENCE": "EKVRDYENSISKDLRSV [IRR1]", "QUANTITATIVE_RESULT": 2.25}
{"BIOSEQUENCE": "SVTVSQGNYVTEDIREG [YMR129W/POM152]", "QUANTITATIVE_RESULT": 2.82}
{"BIOSEQUENCE": "FPPNLEKGENPSCVYNL [UBP6]", "QUANTITATIVE_RESULT": 2.79}
{"BIOSEQUENCE": "VEEVIKLVRDSFTSATE [PRE7]", "QUANTITATIVE_RESULT": 3.06}
{"BIOSEQUENCE": "SLHILMIFWNDICQIDT [SRB8]", "QUANTITATIVE_RESULT": 1.36}
{"BIOSEQUENCE": "NVGLCITIYDLLTVEEG [RPC25]", "QUANTITATIVE_RESULT": 1.45}
{"BIOSEQUENCE": "TVWSANFEYDLSEYDAI [YOR098C/NUP1]", "QUANTITATIVE_RESULT": 2.86}
{"BIOSEQUENCE": "PLPVETPRDRRKSVFAP [SSN2]", "QUANTITATIVE_RESULT": 2.67}
{"BIOSEQUENCE": "LPTVGFDFIKDNETPSK [YOR098C/NUP1]", "QUANTITATIVE_RESULT": 3.15}
{"BIOSEQUENCE": "THHTDIIPIVDYAQLDH [ARP9]", "QUANTITATIVE_RESULT": 2.58}
{"BIOSEQUENCE": "NFHNSKKRMNSNQERCH [RRI1]", "QUANTITATIVE_RESULT": 2.51}
{"BIOSEQUENCE": "NNNNKSINKNNKEMHTD [SSN2]", "QUANTITATIVE_RESULT": 3.01}
{"BIOSEQUENCE": "DTIMENPEPNKKNIQKA [IRR1]", "QUANTITATIVE_RESULT": 2.36}
{"BIOSEQUENCE": "GENNINFQKASATLDGC [BRN1]", "QUANTITATIVE_RESULT": 2.94}
{"BIOSEQUENCE": "TVLETLLSDVNQNQRNV [SMC3]", "QUANTITATIVE_RESULT": 3.23}
{"BIOSEQUENCE": "AIVLPMKRADKFKDMGI [RPT5]", "QUANTITATIVE_RESULT": 2.39}
{"BIOSEQUENCE": "LTGEAEIEQPVTTFVFT [FAS1]", "QUANTITATIVE_RESULT": 3.16}
{"BIOSEQUENCE": "AQFRVPRYHSKNSFQQA [SWP82]", "QUANTITATIVE_RESULT": 2.5}
{"BIOSEQUENCE": "TNEFVGSPSLTSPQYIP [NUT1]", "QUANTITATIVE_RESULT": 2.85}
{"BIOSEQUENCE": "QKRQLHDISKTETSNED [SNU114]", "QUANTITATIVE_RESULT": 3.06}
